- System: OVCAR-8 ovarian
- Experimental Details: NCI tumour cell line growth inhibition, 48 h

- Molecule: "O=c1[nH]c2ccccc2c(=O)c2cc3ccccc3cc12"
  Relational Operator: "="
  TGI / µM: 37.7
- Molecule: "CCOc1ccc(-c2nc3ccc(-c4nc5ccc(N6CCN(C)CC6)cc5[nH]4)cc3[nH]2)cc1OCC"
  Relational Operator: "="
  TGI / µM: 14.5
- Molecule: "COc1ccc(CCN2C(=O)C(=O)C(C(=O)c3ccccc3)C2c2ccccc2)cc1OC (stereo not given)"
  Relational Operator: ">"
  TGI / µM: 100
- Molecule: "CCc1cccc(CC)c1NC1=CC(=O)C(=O)c2ccccc21"
  Relational Operator: "="
  TGI / µM: 36.7
- Molecule: "Cc1c(CNc2ccc(Cl)c(Cl)c2Cl)cnc2nc(N)nc(N)c12"
  Relational Operator: "="
  TGI / µM: 1.41
- Molecule: "O=C1C(=C2C(=O)c3ccccc3[N+]2=O)N([O-])c2ccccc21"
  Relational Operator: "="
  TGI / µM: 50.4
- Molecule: "Cc1[nH]n(C(=O)Cc2ccccc2)c(=O)c1/C=C1\\C(=O)C=Cc2ccccc21"
  Relational Operator: ">"
  TGI / µM: 100
- Molecule: "CCO/C=N\\C1=C(C#N)SC2=N/C(=C\\c3ccco3)C(=O)N21"
  Relational Operator: ">"
  TGI / µM: 100
- Molecule: "O=[N+]([O-])c1ccc(-c2ccc([C@H]3CC(c4cc(F)c(Cl)cc4Cl)=NN3)o2)cc1"
  Relational Operator: ">"
  TGI / µM: 100
- Molecule: "COc1cc(F)c(F)c(F)c1C(=O)c1cnc(NC2CCN(S(C)(=O)=O)CC2)nc1N"
  Relational Operator: ">"
  TGI / µM: 25

* * *

Recorded measurements of TGI, one per entry
- Tested on: NCI-H522 lung
- Experimental Details: NCI tumour cell line growth inhibition, 48 h
Metric Name: TGI (µM)

- Molecule: "COc1ccc(C2OC2C(=O)C23CC4CC(CC(C4)C2)C3)cc1 (stereo not given)"
  Metric Name: "TGI"
  Measurement Unit: "µM"
  Relational Operator: ">"
  Test Result: 100
- Molecule: "O=c1ccn([C@@H]2C[C@H](CO)CS(=O)C2)c(=O)[nH]1 (stereo not given in full)"
  Metric Name: "TGI"
  Measurement Unit: "µM"
  Relational Operator: ">"
  Test Result: 100
- Molecule: "C=C1C(=O)O[C@H]2[C@H]1CC/C(COC(=O)NCc1ccc(Cn3c(=O)sn(CCCI)c3=O)cc1)=C\\CC[C@@]1(C)O[C@@H]21"
  Metric Name: "TGI"
  Measurement Unit: "µM"
  Relational Operator: "="
  Test Result: 2.39
- Molecule: "CC(C)c1cc(C(C)C)c(S(=O)(=O)N/N=C2\\CC3CCC2(C)C3(C)C)c(C(C)C)c1 (stereo not given)"
  Metric Name: "TGI"
  Measurement Unit: "µM"
  Relational Operator: "="
  Test Result: 36.8
- Molecule: "BrC(/C=N/Nc1nnc(-c2ccccc2)c(-c2ccccc2)n1)C(Br)c1ccccc1 (stereo not given)"
  Metric Name: "TGI"
  Measurement Unit: "µM"
  Relational Operator: "="
  Test Result: 54.1

* * *

- Test system: HOP-92 NSCLC
- Experimental Details: NCI tumour cell line growth inhibition, 48 h
Recorded measurements of TGI, one per entry
Metric Name: TGI (µM)

- Compound: "CCN(CC)CCCC(C)Nc1ccnc2cc(OC)ccc12 (centres undefined)"
  Metric Name: "TGI"
  Measurement Unit: "µM"
  Relational Operator: "="
  Test Result: 26.7
- Compound: "O=C1/C(=C/c2ccc(Cl)cc2)NC(=S)N1CN1CCCCC1"
  Metric Name: "TGI"
  Measurement Unit: "µM"
  Relational Operator: ">"
  Test Result: 100
- Compound: "COc1cc(CC2c3cc(OC)c(OC)cc3CCN2C)c(C(=O)O)cc1OC (centres undefined)"
  Metric Name: "TGI"
  Measurement Unit: "µM"
  Relational Operator: ">"
  Test Result: 100
- Compound: "COc1ccc(Cc2nc3cc(C(F)(F)F)ccc3n2C[C@@H]2CCCN3CCCCC23)cc1 (some centres undefined)"
  Metric Name: "TGI"
  Measurement Unit: "µM"
  Relational Operator: "="
  Test Result: 20.7
- Compound: "NS(=O)(=O)c1ccc(NCc2cccc3c(=O)c4ccc(Cl)cc4oc23)cc1"
  Metric Name: "TGI"
  Measurement Unit: "µM"
  Relational Operator: "="
  Test Result: 57
- Compound: "COc1ccc2c(c1)c(-c1nc(-c3cn(C)c4ncccc34)cs1)cn2CCCCN1CCCCC1"
  Metric Name: "TGI"
  Measurement Unit: "µM"
  Relational Operator: "="
  Test Result: 2.76
- Compound: "COc1cc(OC)cc(Oc2nc3ccc(C(F)(F)F)cc3nc2-c2ccccc2)c1"
  Metric Name: "TGI"
  Measurement Unit: "µM"
  Relational Operator: ">"
  Test Result: 100
- Compound: "CCOP(=O)(OCC)/C(F)=C/c1ccc(F)cc1"
  Metric Name: "TGI"
  Measurement Unit: "µM"
  Relational Operator: ">"
  Test Result: 100
- Compound: "Nc1nc(N)c2nc(CNc3ccc(C(=O)NC(CCC(=O)O)C(=O)O)cc3)cnc2n1 (centres undefined)"
  Metric Name: "TGI"
  Measurement Unit: "µM"
  Relational Operator: ">"
  Test Result: 100
- Compound: "Cc1cccc2c(=O)c3cccc(CC(=O)O)c3oc12"
  Metric Name: "TGI"
  Measurement Unit: "µM"
  Relational Operator: ">"
  Test Result: 100
- Compound: "CCOc1cc(NC(C)=O)ccc1C(=O)NN1C(=O)/C(=C/c2ccc(Cl)cc2)N=C1c1ccccc1"
  Metric Name: "TGI"
  Measurement Unit: "µM"
  Relational Operator: ">"
  Test Result: 100
- Compound: "CC(C(=O)NCNC(=O)c1ccccc1)C(=O)NCc1ccccc1 (centres undefined)"
  Metric Name: "TGI"
  Measurement Unit: "µM"
  Relational Operator: ">"
  Test Result: 100
- Compound: "C[C@H]1CC(=O)C[C@@H]2CC[C@@H]3[C@H](CC[C@]4(C)C(OC(=O)c5cccc6c(=O)c7ccccc7[nH]c56)CC[C@@H]34)[C@]21C (some centres undefined)"
  Metric Name: "TGI"
  Measurement Unit: "µM"
  Relational Operator: "="
  Test Result: 70.8
- Compound: "CCC[CH2][Sn]1([CH2]CCC)[O]C(=O)c2cccnc2[S]1"
  Metric Name: "TGI"
  Measurement Unit: "µM"
  Relational Operator: "="
  Test Result: 12.1
